# Tested on: SK-MEL-5
# procedure-summary: Growth inhibition of human SK-MEL-5 cells at 10 uM incubated for 48 hrs by sulforhodamine B assay relative to control
# Type: functional
# test-conditions: read-out: GI

{"molecule": "COc1ccc(NCC(=O)Nc2ccc(-c3nc4ccccc4s3)cc2)cc1", "target-of-assay": "SK-MEL-5", "u": "%", "inhibition of growth at 10 µM": 2.74}
{"molecule": "O=C(CNCc1ccccc1)Nc1ccc(-c2nc3ccccc3s2)cc1", "target-of-assay": "SK-MEL-5", "u": "%", "inhibition of growth at 10 µM": 5.63}
{"molecule": "O=C(Cn1nnc2ccccc21)Nc1ccc(-c2nc3ccccc3s2)cc1", "target-of-assay": "SK-MEL-5", "u": "%", "inhibition of growth at 10 µM": 25.7}
{"molecule": "O=C(CN1CCOCC1)Nc1ccc(-c2nc3ccccc3s2)cc1", "target-of-assay": "SK-MEL-5", "u": "%", "inhibition of growth at 10 µM": 7.27}
{"molecule": "O=C(CNc1nc(-c2ccc(Cl)cc2)cs1)Nc1ccc(-c2nc3ccccc3s2)cc1", "target-of-assay": "SK-MEL-5", "u": "%", "inhibition of growth at 10 µM": 12.3}
{"molecule": "Cc1ccc(NCC(=O)Nc2ccc(-c3nc4ccccc4s3)cc2)cc1", "target-of-assay": "SK-MEL-5", "u": "%", "inhibition of growth at 10 µM": 11.3}
{"molecule": "O=C(CNC1CCCCC1)Nc1ccc(-c2nc3ccccc3s2)cc1", "target-of-assay": "SK-MEL-5", "u": "%", "inhibition of growth at 10 µM": 9.16}
{"molecule": "NS(=O)(=O)c1ccc(NCC(=O)Nc2ccc(-c3nc4ccccc4s3)cc2)cc1", "target-of-assay": "SK-MEL-5", "u": "%", "inhibition of growth at 10 µM": 28.7}
{"molecule": "O=C(Cn1ccnc1)Nc1ccc(-c2nc3ccccc3s2)cc1", "target-of-assay": "SK-MEL-5", "u": "%", "inhibition of growth at 10 µM": 60.8}
{"molecule": "O=C(CNc1c(Cl)cccc1Cl)Nc1ccc(-c2nc3ccccc3s2)cc1", "target-of-assay": "SK-MEL-5", "u": "%", "inhibition of growth at 10 µM": 78.8}
{"molecule": "O=C(CN1CCCCC1)Nc1ccc(-c2nc3ccccc3s2)cc1", "target-of-assay": "SK-MEL-5", "u": "%", "inhibition of growth at 10 µM": 9.16}
{"molecule": "O=C(CNc1ccccc1)Nc1ccc(-c2nc3ccccc3s2)cc1", "target-of-assay": "SK-MEL-5", "u": "%", "inhibition of growth at 10 µM": 22}
{"molecule": "O=C(CNc1ccc(Cl)cc1)Nc1ccc(-c2nc3ccccc3s2)cc1", "target-of-assay": "SK-MEL-5", "u": "%", "inhibition of growth at 10 µM": 75}
{"molecule": "O=C(CNc1nc2ccccc2s1)Nc1ccc(-c2nc3ccccc3s2)cc1", "target-of-assay": "SK-MEL-5", "u": "%", "inhibition of growth at 10 µM": -2.93}
{"molecule": "O=C(Cn1ccc2ccccc21)Nc1ccc(-c2nc3ccccc3s2)cc1", "target-of-assay": "SK-MEL-5", "u": "%", "inhibition of growth at 10 µM": 1.44}
{"molecule": "CN1CCN(CC(=O)Nc2ccc(-c3nc4ccccc4s3)cc2)CC1", "target-of-assay": "SK-MEL-5", "u": "%", "inhibition of growth at 10 µM": 26.3}
{"molecule": "O=C(CN(c1ccccc1)c1ccccc1)Nc1ccc(-c2nc3ccccc3s2)cc1", "target-of-assay": "SK-MEL-5", "u": "%", "inhibition of growth at 10 µM": 7.11}
{"molecule": "O=C(Cn1cncn1)Nc1ccc(-c2nc3ccccc3s2)cc1", "target-of-assay": "SK-MEL-5", "u": "%", "inhibition of growth at 10 µM": 13.3}
{"molecule": "O=C(Cn1c2ccccc2c2ccccc21)Nc1ccc(-c2nc3ccccc3s2)cc1", "target-of-assay": "SK-MEL-5", "u": "%", "inhibition of growth at 10 µM": 6.47}
{"molecule": "O=C(CN1C(=O)C(=O)c2ccccc21)Nc1ccc(-c2nc3ccccc3s2)cc1", "target-of-assay": "SK-MEL-5", "u": "%", "inhibition of growth at 10 µM": 16.6}
{"molecule": "Cc1cc(C)n(CC(=O)Nc2ccc(-c3nc4ccccc4s3)cc2)n1", "target-of-assay": "SK-MEL-5", "u": "%", "inhibition of growth at 10 µM": 3.6}
{"molecule": "Cc1cc(NCC(=O)Nc2ccc(-c3nc4ccccc4s3)cc2)no1", "target-of-assay": "SK-MEL-5", "u": "%", "inhibition of growth at 10 µM": 12.3}
{"molecule": "O=C(CNc1nnc(-c2ccc(Cl)cc2)o1)Nc1ccc(-c2nc3ccccc3s2)cc1", "target-of-assay": "SK-MEL-5", "u": "%", "inhibition of growth at 10 µM": 7.93}
{"molecule": "O=C(Cn1cnc2ccccc21)Nc1ccc(-c2nc3ccccc3s2)cc1", "target-of-assay": "SK-MEL-5", "u": "%", "inhibition of growth at 10 µM": 70.9}

Data provenance is ChEMBL document CHEMBL4765227.
